biological target: CB2 receptor (Homo sapiens); construct: expressed in transfected cells; host or cells: CHO cells, G418-selected transfected line; experiment: CB2 binding procedure: displacement of [3H]CP-55,940 from membranes of transfected CHO cells; conditions: means ± SEM; [3H]CP-55,940, transfected CHO cell membranes; read-out: Ki (nM) CB2
Sequence (P34972 whole entry): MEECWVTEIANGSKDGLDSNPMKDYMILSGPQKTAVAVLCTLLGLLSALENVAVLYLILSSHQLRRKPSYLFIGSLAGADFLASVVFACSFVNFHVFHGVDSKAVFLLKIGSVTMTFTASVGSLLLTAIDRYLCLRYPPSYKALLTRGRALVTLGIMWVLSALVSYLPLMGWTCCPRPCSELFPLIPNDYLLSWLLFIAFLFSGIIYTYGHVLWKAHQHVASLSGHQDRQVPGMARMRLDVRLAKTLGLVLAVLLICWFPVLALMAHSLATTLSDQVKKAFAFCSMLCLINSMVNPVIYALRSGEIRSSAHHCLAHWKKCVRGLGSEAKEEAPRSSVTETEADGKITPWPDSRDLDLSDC
PARAMETER_MEASURED: log10 of Ki (log10 of the value in nM)

> print(dat)
                                   molecule  parameter.measured  test.result
1  CCCCCCC(C)(C)c1cc(OC)c(C2(O)CCCCCC2)c(OC)c1 [O-2091]         log10 of Ki         1.81
2  CCCCCCC(C)(C)c1cc(O)c(C2CCC(C)CC2)c(O)c1 (stereo not shown) [O-1659]         log10 of Ki         0.70
3  CCCCCCC(C)(C)c1cc(O)c(C2CCCC(C)C2)c(O)c1 (single isomer, unassigned) [O-1797A]         log10 of Ki        -0.40
4  CCCCCCC(C)(C)c1cc(OC)c(C2CCOCC2)c(OC)c1 [O-1964]         log10 of Ki         2.96
5  CCCCCCC(C)(C)c1cc(OC)c(C2CCCC(C)C2)c(OC)c1 (stereo not shown) [O-1999]         log10 of Ki         2.67
6  CCCCCCC(C)(C)c1cc(OCC)c(C2(O)CCCC(C)C2)c(OCC)c1 (stereo not shown) [O-2090]         log10 of Ki         2.93

---

As shown below, each of these compounds has a reported log10 of Ki value.
biological target: CB2 receptor (Homo sapiens); construct: expressed in transfected cells; host or cells: CHO cells, G418-selected transfected line; experiment: CB2 binding procedure: displacement of [3H]CP-55,940 from membranes of transfected CHO cells; conditions: means ± SEM; [3H]CP-55,940, transfected CHO cell membranes; read-out: Ki (nM) CB2
PARAMETER_MEASURED: log10 of Ki (log10 of the value in nM)

> print(dat)
                                   compound  test.result
1      CCCCCCC(C)(C)c1cc(O)c(C2CCCC2)c(O)c1         0.85
2  CCCC(C)(C)c1cc(O)c(C2CCCC(C)C2)c(O)c1 (centres unmarked)         1.11
3  CCCCCCC(C)(C)c1cc(O)c(C2CCCCC2C)c(O)c1 (centres unmarked)         0.00
4    CCCCCCC(C)(C)c1cc(O)c(C2=CCCCC2)c(O)c1         1.45
5  CCCCCCC(C)(C)c1cc(OC)c(C2(O)CCC(=O)CC2)c(OC)c1         2.54
6  CCCCCCC(C)(C)c1cc(O)c(C2CCCC(C)C2)c(O)c1 (single isomer, unassigned) [O-1798B]        -0.30
7  CCCCCCC(C)(C)c1cc(OC)c(C2(O)CCC3(CC2)OCCO3)c(OC)c1         2.10

---

biological target: CB1 receptor (Rattus norvegicus, UniProt P20272); assay: CB1 binding procedure: displacement of [3H]CP 55,940 from rat whole-brain P2 membranes; design: whole brain was homogenized and centrifuged; from tissue; host or cells: rat whole brain, P2 membrane fraction; settings: means ± SEM; [3H]CP 55,940, rat brain membranes; read-out: Ki (nM) CB1
Sequence (P20272 whole entry): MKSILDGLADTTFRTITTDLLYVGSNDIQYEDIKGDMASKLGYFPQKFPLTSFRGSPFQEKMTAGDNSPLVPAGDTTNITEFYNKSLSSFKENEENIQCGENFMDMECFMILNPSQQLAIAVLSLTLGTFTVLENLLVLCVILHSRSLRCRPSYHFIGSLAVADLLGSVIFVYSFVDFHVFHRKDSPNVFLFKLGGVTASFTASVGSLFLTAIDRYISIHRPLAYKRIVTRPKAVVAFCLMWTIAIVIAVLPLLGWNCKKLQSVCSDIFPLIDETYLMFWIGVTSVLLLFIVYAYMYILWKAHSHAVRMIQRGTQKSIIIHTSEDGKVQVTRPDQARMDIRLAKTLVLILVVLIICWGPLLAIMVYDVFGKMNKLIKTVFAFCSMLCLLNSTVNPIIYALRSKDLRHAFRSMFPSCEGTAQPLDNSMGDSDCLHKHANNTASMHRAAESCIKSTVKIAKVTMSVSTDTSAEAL
With a cut-off of 40 nM, any Ki strictly below it is called True; any Ki meeting it or above is called False.

> print(dat)
                                   compound  label.class
1  CCCCCCC(C)(C)c1cc(O)c(C2CCCC(C)C2)c(O)c1 (single isomer, unassigned) [O-1798B]         True
2  CCCCCCC(C)(C)c1cc(O)c(C2CCC(C)CC2)c(O)c1 (stereo not drawn)        False
3  CCCCCCC(C)(C)c1cc(O)c(C2CCCC(C)C2)c(O)c1 (single isomer, unassigned) [O-1797A]         True
4  CCCCCCC(C)(C)c1cc(OC)c(C2(O)CCCC(C)(C)C2)c(OC)c1 (stereo not drawn)        False
5      CCCCCCC(C)(C)c1cc(O)c(C2CCCC2)c(O)c1        False
